Target: RIPK2 enzyme (Homo sapiens (Human), UniProt O43353)
Sequence (O43353 whole entry): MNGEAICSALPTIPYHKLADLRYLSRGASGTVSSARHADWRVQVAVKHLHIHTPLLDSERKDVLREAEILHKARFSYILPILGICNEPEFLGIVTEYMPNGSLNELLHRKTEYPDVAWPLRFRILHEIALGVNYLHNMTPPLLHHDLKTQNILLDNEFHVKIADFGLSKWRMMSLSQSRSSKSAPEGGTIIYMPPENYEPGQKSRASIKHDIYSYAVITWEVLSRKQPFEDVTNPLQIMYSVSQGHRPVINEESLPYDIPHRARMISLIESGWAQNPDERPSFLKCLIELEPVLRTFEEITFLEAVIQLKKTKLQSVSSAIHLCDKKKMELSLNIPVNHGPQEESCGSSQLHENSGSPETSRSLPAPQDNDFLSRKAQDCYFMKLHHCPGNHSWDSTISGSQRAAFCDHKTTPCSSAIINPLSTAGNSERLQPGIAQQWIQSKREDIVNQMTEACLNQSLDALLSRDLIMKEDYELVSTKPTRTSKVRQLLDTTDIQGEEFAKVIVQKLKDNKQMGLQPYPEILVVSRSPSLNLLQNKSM
Kindly supply the reported IC50 values for the records listed here.

IC50 measured on CC1NCCCC1c1cc2c(Nc3cc4ncsc4cc3F)c(F)cnc2s1 (single isomer, unassigned) [Example 122c] = 10 to 20 nM

IC50 measured on COCCN1CCC=C(c2cc3c(Nc4ccc5scnc5c4)ccnc3s2)[C@@H]1C [Example 12b] = ≤ 10 nM

IC50 measured on CC1C(c2cc3c(Nc4ccc5scnc5c4F)c(F)cnc3s2)CCCN1C (single isomer, unassigned) [Example 125b] = 10 to 20 nM

IC50 measured on CCN1CCC(c2cc3c(Nc4ccc5scnc5c4F)ccnc3s2)C1(C)C (centres unmarked) = 10 to 20 nM

IC50 measured on CC1C(c2cc3c(Nc4ccc5scnc5c4F)ccnc3s2)CCN1CCO (centres unmarked) = ≤ 10 nM

IC50 measured on CC1(C)C(c2cc3c(Nc4cc5ncsc5cc4F)ccnc3s2)CCN1CCO (centres unmarked) = 20 to 50 nM

IC50 measured on CC1C(c2cc3c(Nc4ccc5scnc5c4)ccnc3s2)CCCCN1C (centres unmarked) [Example 116a] = ≤ 10 nM

IC50 measured on CC1C(c2cc3c(Nc4ccc5scnc5c4)c(F)cnc3s2)CCCN1C (single isomer, unassigned) [Example 120b] = ≤ 10 nM

----------
Biological target: RIPK2 enzyme (Homo sapiens (Human))
Kindly supply the reported IC50 values for the records listed here.

IC50 measured on CCC1C(c2cc3c(Nc4ccc5scnc5c4)ccnc3s2)CCCN1C (centres unmarked) [Example 23a] = ≤ 10 nM

IC50 measured on CC1(C)NCCC1c1cc2c(Nc3ccc4scnc4c3)ccnc2s1 (centres unmarked) = ≤ 10 nM

IC50 measured on CC1C(c2cc3c(Nc4ccc5scnc5c4F)c(F)cnc3s2)CCCN1C (single isomer, unassigned) [Example 125d] = ≥ 50 nM

IC50 measured on CCN1CCC(c2cc3c(Nc4cc5ncsc5cc4F)ccnc3s2)C12CCOC2 (centres unmarked) = ≥ 50 nM

IC50 measured on CC(=O)N1CCCC(c2cc3c(Nc4ccc5scnc5c4)ccnc3s2)CC1 (centres unmarked) = 10 to 20 nM

IC50 measured on c1cc(Nc2ccc3scnc3c2)c2cc(C3CCCNCC3)sc2n1 (centres unmarked) = ≤ 10 nM

IC50 measured on CC1C(c2cc3c(Nc4ccc5scnc5c4)c(F)cnc3s2)CCCN1C (single isomer, unassigned) [Example 120d] = ≥ 50 nM

IC50 measured on c1cc(Nc2ccc3scnc3c2)c2cc(C3CCCN4CCCCC34)sc2n1 (centres unmarked) = 20 to 50 nM

IC50 measured on CC(=O)N1CCCC=C(c2cc3c(Nc4ccc5scnc5c4)ccnc3s2)C1 = ≤ 10 nM

IC50 measured on CCN1CCC=C(c2cc3c(Nc4ccc5scnc5c4)ccnc3s2)C1C (centres unmarked) = ≤ 10 nM

IC50 measured on CCN1CCC=C(c2cc3c(Nc4c(F)cc5scnc5c4F)ccnc3s2)[C@@H]1C [Example 72b] = ≤ 10 nM

IC50 measured on CC1(C)NCCC1c1cc2c(Nc3c(F)cc4scnc4c3F)ccnc2s1 (centres unmarked) = ≤ 10 nM

IC50 measured on CC1(C)NCCC1c1cc2c(Nc3ccc4scnc4c3F)ccnc2s1 (centres unmarked) = ≤ 10 nM

IC50 measured on CC(C)N1CCC=C(c2cc3c(Nc4ccc5scnc5c4)ccnc3s2)C1C (centres unmarked) = ≤ 10 nM

IC50 measured on CC1NCCCC1c1cc2c(Nc3cc4ncsc4cc3F)c(F)cnc2s1 (single isomer, unassigned) [Example 122b] = 20 to 50 nM

IC50 measured on CC1NCCCCC1c1cc2c(Nc3c(F)cc4scnc4c3F)ccnc2s1 (single isomer, unassigned) [Example 118d] = 10 to 20 nM

IC50 measured on CCN1CCCC(c2cc3c(Nc4ccc5scnc5c4)c(F)cnc3s2)C1C (centres unmarked) = ≤ 10 nM

IC50 measured on CC1C(c2cc3c(Nc4ccc5scnc5c4)ccnc3s2)CCN1CCO (centres unmarked) = ≤ 10 nM

IC50 measured on CC1C(c2cc3c(Nc4c(F)cc5scnc5c4F)c(F)cnc3s2)CCCN1C (single isomer, unassigned) [Example 127d] = 10 to 20 nM

IC50 measured on C[C@H]1NCCC[C@@H]1c1cc2c(Nc3c(F)cc4scnc4c3F)ccnc2s1 [Example 67a] = ≤ 10 nM

IC50 measured on CC1NCCCC1c1cc2c(Nc3ccc4scnc4c3F)c(F)cnc2s1 (single isomer, unassigned) [Example 124b] = ≤ 10 nM

IC50 measured on C[C@@H]1NCCC=C1c1cc2c(Nc3c(F)cc4scnc4c3F)ccnc2s1 [Example 66b] = ≤ 10 nM

IC50 measured on C[C@H]1NCCC[C@H]1c1cc2c(Nc3cc4ncsc4cc3F)ccnc2s1 [Example 50b] = ≤ 10 nM

IC50 measured on CN1CCC(c2cc3c(Nc4c(F)cc5scnc5c4F)ccnc3s2)C12CCOCC2 (centres unmarked) = 20 to 50 nM

IC50 measured on CC1NCCCCC1c1cc2c(Nc3c(F)cc4scnc4c3F)ccnc2s1 (centres unmarked) [Example 118b] = ≤ 10 nM

IC50 measured on CC1C(c2cc3c(Nc4ccc5scnc5c4)c(F)cnc3s2)CCCN1C (single isomer, unassigned) [Example 120a] = 20 to 50 nM

IC50 measured on CCN1CCC(c2cc3c(Nc4ccc5scnc5c4)ccnc3s2)C12CCOCC2 (centres unmarked) = ≥ 50 nM

IC50 measured on CC1NCCCC1c1cc2c(Nc3c(F)cc4scnc4c3F)c(F)cnc2s1 (single isomer, unassigned) [Example 126d] = 10 to 20 nM

IC50 measured on CCN1CCC[C@@H](c2cc3c(Nc4ccc5scnc5c4F)ccnc3s2)[C@@H]1C = ≤ 10 nM

IC50 measured on C1=C(c2cc3c(Nc4ccc5scnc5c4)ccnc3s2)CCNCC1 = ≤ 10 nM

IC50 measured on CCN1CCC(c2cc3c(Nc4c(F)cc5scnc5c4F)ccnc3s2)C1(C)C (centres unmarked) = ≤ 10 nM

IC50 measured on Fc1cc2scnc2cc1Nc1ccnc2sc(C3CCNC34CCOC4)cc12 (centres unmarked) = ≥ 50 nM

IC50 measured on C[C@H]1[C@@H](c2cc3c(Nc4ccc5scnc5c4F)ccnc3s2)CCCN1C = ≤ 10 nM

IC50 measured on CC1NCCCC1c1cc2c(Nc3ccc4scnc4c3F)c(F)cnc2s1 (single isomer, unassigned) [Example 124d] = ≥ 50 nM

IC50 measured on CC1C(c2cc3c(Nc4cc5ncsc5cc4F)c(F)cnc3s2)CCCN1C (centres unmarked) [Example 123a] = ≥ 50 nM

----------
Assay system RIPK2 enzyme (Homo sapiens (Human), UniProt O43353); read-out recorded as IC50.

IC50 measured on CC1C(c2cc3c(Nc4ccc5scnc5c4)ccnc3s2)CCCN1CC(F)F (centres unmarked) = 0.02 to 0.05 µM

IC50 measured on CCN1CCC(c2cc3c(Nc4cc5ncsc5cc4F)ccnc3s2)C12CCOCC2 (centres unmarked) = ≥ 0.05 µM

IC50 measured on CCN1CCC=C(c2cc3c(Nc4cc5ncsc5cc4F)ccnc3s2)[C@H]1C [Example 52a] = 0.01 to 0.02 µM

IC50 measured on CC1C(c2cc3c(Nc4c(F)cc5scnc5c4F)c(F)cnc3s2)CCCN1C (centres unmarked) [Example 127b] = ≤ 0.01 µM

IC50 measured on C[C@H]1NCCC=C1c1cc2c(Nc3c(F)cc4scnc4c3F)ccnc2s1 [Example 66a] = ≤ 0.01 µM

----------
Target: RIPK2 enzyme (Homo sapiens (Human), UniProt O43353)
Kindly supply the reported IC50 values for the records listed here.

The recorded IC50 with RIPK2 enzyme (Homo sapiens (Human), UniProt O43353) for C[C@H]1[C@@H](c2cc3c(Nc4c(F)cc5scnc5c4F)ccnc3s2)CCCN1C [Example 71b] was ≤ 10 nM

The recorded IC50 with RIPK2 enzyme (Homo sapiens (Human), UniProt O43353) for CC1NCCCC1c1cc2c(Nc3ccc4scnc4c3)c(F)cnc2s1 (single isomer, unassigned) [Example 119c] was ≤ 10 nM

The recorded IC50 with RIPK2 enzyme (Homo sapiens (Human), UniProt O43353) for C[C@@H]1NCCC[C@@H]1c1cc2c(Nc3cc4ncsc4cc3F)ccnc2s1 [Example 51b] was 20 to 50 nM

The recorded IC50 with RIPK2 enzyme (Homo sapiens (Human), UniProt O43353) for CC1(C)NCCC1c1cc2c(Nc3cc4ncsc4cc3F)ccnc2s1 (centres unmarked) [Example 78a] was ≤ 10 nM

The recorded IC50 with RIPK2 enzyme (Homo sapiens (Human), UniProt O43353) for CC1NCCCC1c1cc2c(Nc3ccc4scnc4c3F)c(F)cnc2s1 (single isomer, unassigned) [Example 124c] was ≤ 10 nM

The recorded IC50 with RIPK2 enzyme (Homo sapiens (Human), UniProt O43353) for CC1NCCCCC1c1cc2c(Nc3ccc4scnc4c3)ccnc2s1 (centres unmarked) [Example 115a] was ≤ 10 nM

The recorded IC50 with RIPK2 enzyme (Homo sapiens (Human), UniProt O43353) for CC1C(c2cc3c(Nc4ccc5scnc5c4)ccnc3s2)=CCCN1C (centres unmarked) was ≤ 10 nM

The recorded IC50 with RIPK2 enzyme (Homo sapiens (Human), UniProt O43353) for CCN1CCC=C(c2cc3c(Nc4cc5ncsc5cc4F)ccnc3s2)[C@@H]1C [Example 52b] was 10 to 20 nM
